Source of measurements: patent US12655116B2

A collection of molecules and their measured pest or weed control at 80 g/ha
- Tested on: MATIN
- MEASUREMENT_NOTES: Pre-emergence herbicidal action against MATIN
- Type: in vivo, Matricaria inodora
- CONDITION_NOTES: Tripleurospermum inodorum, 504 h, dosage 80 g/ha
- Text: Seeds of monocotyledonous and dicotyledonous weed plants and crop plants are laid out in sandy loam soil in wood-fiber pots and covered with soil. […] The damage to the test plants is scored visually after a test period of 3 weeks by comparison with untreated controls (herbicidal activity in percent (%): 100% activity=the plants have died, 0% activity=like control plants). […]
Express the result in % but write the number alone.

Some molecules with known pest or weed control at 80 g/ha results, for comparison:
CCn1nnnc1NC(=O)c1ccc(C(F)(F)F)c(C(=O)NC)c1Br 100
COc1c(C(=O)Nc2nnnn2C)ccc(C(F)(F)F)c1C(=O)NC1CC1 100
CCn1nnnc1NC(=O)c1ccc(Br)c(C(=O)NC)c1Cl 100

Annotate the molecule Cn1nnnc1NC(=O)c1ccc(C(F)F)c(C(=O)NC2CC2)c1Br with its measured pest or weed control at 80 g/ha. 100

Annotate the molecule CNC(=O)c1c(C(F)(F)F)ccc(C(=O)Nc2nnnn2C)c1SC with its measured pest or weed control at 80 g/ha. 100

Annotate the molecule CCNC(=O)c1c(Cl)ccc(C(=O)Nc2nnnn2C)c1Br with its measured pest or weed control at 80 g/ha. 90

Annotate the molecule CCNC(=O)c1c(C(F)F)ccc(C(=O)Nc2nnnn2C)c1SC with its measured pest or weed control at 80 g/ha. 100

Annotate the molecule Cn1nnnc1NC(=O)c1ccc(C(F)(F)F)c(C(N)=O)c1Cl with its measured pest or weed control at 80 g/ha. 80

Annotate the molecule CCn1nnnc1NC(=O)c1ccc(C(F)(F)F)c(C(=O)NC2CC2)c1Cl with its measured pest or weed control at 80 g/ha. 100

Annotate the molecule Cn1nnnc1NC(=O)c1ccc(C(F)(F)F)c(C(=O)NC2CC2)c1Br with its measured pest or weed control at 80 g/ha. 100

---

- System: SETVI
- MEASUREMENT_NOTES: Post-emergence herbicidal action against SETVI
- Format: in vivo, Setaria viridis
- CONDITION_NOTES: dosage 5 g/ha
PROPERTY_NAME: Post-emergence action against SETVI in % (%)
Express the result in % but write the number alone.

Some molecules with known Post-emergence action against SETVI in % results, for comparison:
CCNC(=O)c1c(C(F)(F)F)ccc(C(=O)Nc2nnco2)c1Cl 100
CNC(=O)c1c(C(F)F)ccc(C(=O)Nc2nnco2)c1SC 80

Report Post-emergence action against SETVI in % on SETVI for this entry: CCc1c(C(=O)Nc2nnnn2C)ccc(C(F)(F)F)c1C(=O)NCC(F)F 80

Report Post-emergence action against SETVI in % on SETVI for this entry: CCn1nnnc1NC(=O)c1ccc(C(F)(F)F)c(C(=O)NC)c1OC 80

Report Post-emergence action against SETVI in % on SETVI for this entry: CCNC(=O)c1c(C(F)F)ccc(C(=O)Nc2nnco2)c1Cl 80

Report Post-emergence action against SETVI in % on SETVI for this entry: CCn1nnnc1NC(=O)c1ccc(C(F)F)c(C(=O)NC)c1C1CC1 80

Report Post-emergence action against SETVI in % on SETVI for this entry: CCn1nnnc1NC(=O)c1ccc(C(F)F)c(C(=O)NC2CC2)c1SC 90

Report Post-emergence action against SETVI in % on SETVI for this entry: CCn1nnnc1NC(=O)c1ccc(C(F)(F)F)c(C(=O)NCCOC)c1C 80

Report Post-emergence action against SETVI in % on SETVI for this entry: CCn1nnnc1NC(=O)c1ccc(C(F)F)c(C(=O)NCC(F)F)c1SC 80

---

A collection of compounds and their measured Pre-emergence action against VERPE in %
- System: VERPE
- MEASUREMENT_NOTES: Pre-emergence herbicidal action against VERPE
- Type: in vivo, Veronica persica
- CONDITION_NOTES: dosage 80 g/ha

COMPOUND	Pre-emergence action against VERPE in %
CCn1nnnc1NC(=O)c1ccc(C(F)F)c(C(=O)NC)c1C1CC1	100%
CCn1nnnc1NC(=O)c1ccc(C(F)(F)F)c(C(=O)NC(C)C2CC2)c1Cl (centres unmarked)	100%
CCn1nnnc1NC(=O)c1ccc(C(F)F)c(C(=O)NCC(F)F)c1Br	100%
CSc1c(C(=O)Nc2nnnn2C)ccc(C(F)(F)F)c1C(=O)NCC1CC1	100%
CCn1nnnc1NC(=O)c1ccc(C(F)(F)F)c(C(=O)NCC(F)F)c1C1CC1	90%

Report Pre-emergence action against VERPE in % on VERPE for this entry: CCCn1nnnc1NC(=O)c1ccc(S(C)(=O)=O)c(C(=O)NC2CC2)c1Cl 80%

Report Pre-emergence action against VERPE in % on VERPE for this entry: CCn1nnnc1NC(=O)c1ccc(C(F)F)c(C(=O)NCC2CC2)c1SC 90%

Report Pre-emergence action against VERPE in % on VERPE for this entry: CCn1nnnc1NC(=O)c1ccc(C(F)(F)F)c(C(=O)NC)c1OC 100%

---

- Test system: ECHCG
- MEASUREMENT_NOTES: Pre-emergence herbicidal action against ECHCG
- Assay type: in vivo, Echinochloa crus-galli
- CONDITION_NOTES: 80 g/ha
PROPERTY_NAME: Pre-emergence action against ECHCG in % (%)
Express the result in % but write the number alone.

COMPOUND	ENDPOINT_VALUE
Cc1nnc(NC(=O)c2ccc(C(F)(F)F)c(C(=O)NC3CCC3)c2C)o1	100

Annotate the compound CCn1nnnc1NC(=O)c1ccc(I)c(C(=O)NC)c1Cl with its measured Pre-emergence action against ECHCG in %. 80

Annotate the compound Cn1nnnc1NC(=O)c1ccc(C(F)(F)F)c(C(=O)NCC(F)F)c1C1CC1 with its measured Pre-emergence action against ECHCG in %. 90

---

- Test system: DIGSA
- MEASUREMENT_NOTES: Pre-emergence herbicidal action against DIGSA
- Format: in vivo, Digitaria sanguinalis
- CONDITION_NOTES: Digitaria sanguinalis, 504 h, dosage 20 g/ha
PROPERTY_NAME: pest or weed control at 20 g/ha

Some compounds with known pest or weed control at 20 g/ha results, for comparison:
COMPOUND	STUDY_SYSTEM	pest or weed control at 20 g/ha
CCn1nnnc1NC(=O)c1ccc(Br)c(C(=O)NC)c1Cl [Example 2-177]	DIGSA	100%
CCn1nnnc1NC(=O)c1ccc(C(F)(F)F)c(C(=O)NC2CC2)c1C [Example 2-27]	DIGSA	100%
Cn1nnnc1NC(=O)c1ccc(C(F)F)c(C(=O)NC2CC2)c1Cl [Example 1-149]	DIGSA	100%

Annotate the compound Cn1nnnc1NC(=O)c1ccc(Br)c(C(=O)NC2CC2)c1Cl [Example 1-179] with its measured pest or weed control at 20 g/ha. 100%

Annotate the compound CNC(=O)c1c(C(F)F)ccc(C(=O)Nc2nnnn2C)c1C [Example 1-44] with its measured pest or weed control at 20 g/ha. 90%

---

- System: POLCO
- MEASUREMENT_NOTES: Post-emergence herbicidal action against POLCO
- Assay type: in vivo, Polygonum convolvulus
- CONDITION_NOTES: dosage 20 g/ha
A collection of compounds and their measured Post-emergence action against POLCO in %
Express the result in % but write the number alone.

CCn1nnnc1NC(=O)c1ccc(C(F)F)c(C(=O)NC)c1C1CC1 80
Cc1c(C(=O)Nc2nnnn2C)ccc(C(F)(F)F)c1C(=O)NCC1CC1 80
CCn1nnnc1NC(=O)c1ccc(C(F)(F)F)c(C(=O)NCC(F)F)c1C 80

Report Post-emergence action against POLCO in % on POLCO for this entry: CCNC(=O)c1c(C(F)F)ccc(C(=O)Nc2nnnn2CC)c1C1CC1 100

---

A collection of molecules and their measured Pre-emergence action against ABUTH (herbicidal activity)
- Test system: ABUTH
- MEASUREMENT_NOTES: Pre-emergence herbicidal action against ABUTH
- Type: in vivo, Abutilon theophrasti
- CONDITION_NOTES: 80 g/ha, scored visually after 3 weeks vs untreated controls (100% = plants have died, 0% = like control plants)
Express the result in % but write the number alone.

Annotate the molecule Cc1nnc(NC(=O)c2ccc(C(F)F)c(C(=O)NC(C)C3CC3)c2C)o1 (stereo not drawn) [Example 6-258] with its measured Pre-emergence action against ABUTH (herbicidal activity). 100

Annotate the molecule CCn1nnnc1NC(=O)c1ccc(C(F)(F)F)c(C(=O)NCC#N)c1C [Example 2-36] with its measured Pre-emergence action against ABUTH (herbicidal activity). 100

---

- System: DIGSA
- MEASUREMENT_NOTES: Post-emergence herbicidal action against DIGSA
- Assay type: in vivo, Digitaria sanguinalis
- CONDITION_NOTES: Digitaria sanguinalis, 504 h, 5 g/ha
A collection of molecules and their measured pest or weed control at 5 g/ha
Express the result in % but write the number alone.

CCNC(=O)c1c(C(F)F)ccc(C(=O)Nc2nnnn2C)c1Br 90
CCNC(=O)c1c(C(F)F)ccc(C(=O)Nc2nnnn2CC)c1CC 90
CNC(=O)c1c(Cl)ccc(C(=O)Nc2nnnn2C)c1C 80
CCNC(=O)c1c(C(F)(F)F)ccc(C(=O)Nc2nnnn2C)c1OC 100
Cc1nnc(NC(=O)c2ccc(C(F)(F)F)c(C(=O)NC(C)C)c2C)o1 90

Attention now shifts to the item below.
Annotate the molecule CCNC(=O)c1c(C(F)(F)F)ccc(C(=O)Nc2nnnn2CC)c1Cl with its measured pest or weed control at 5 g/ha. 80
